# System: P. falciparum 3D7
# test: DAPI stain fluorescent high content imaging assay, P. falciparum 3D7 (confirmatory screen, Avery)
# condition info: Plasmodium falciparum, 3D7, read-out: percent_inh @ 5 uM
assay readout: inhibition of growth at 5 µM (%)
Please reply with the bare figure in % and do not write the unit itself.

Here's what some known entries look like.
{"molecule": "Clc1ccc2c(N3CCCC3)ccnc2c1", "inhibition of growth at 5 µM (%)": 97}
{"molecule": "CCC1(C)CC(CCNCc2ccccc2O)(c2ccc(C)cc2)CCO1 (centres unmarked)", "inhibition of growth at 5 µM (%)": 97}
{"molecule": "Oc1c(CN2CCN(c3ccccc3F)CC2)cc(Br)c2cccnc12", "inhibition of growth at 5 µM (%)": 91}

IN: Dear colleague, I am looking for the recorded inhibition of growth at 5 µM of the following molecule: `COc1cccc(NC(=O)Cn2c(C)c(C#N)c3ccccc32)c1`
OUT: 95

IN: Reported inhibition of growth at 5 µM for `CN(C)c1ccc(C=Cc2nc(=O)c3ccccc3o2)cc1` : what is it?
OUT: 96
